B1: Hairpin Ribozyme (parent)
chain: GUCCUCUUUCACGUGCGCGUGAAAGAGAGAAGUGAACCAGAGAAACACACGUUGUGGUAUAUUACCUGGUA

variants of: B1; test: self-cleavage, relative activity (ratio to wild type); higher = more cleavage; co-transcriptional
Quantity Name: self-cleavage
Lab note: record the figure alone, no unit after it.

Before answering, review these 5 worked examples.
>>> value("G40C G68U")
0.148
>>> value("G27C G51C")
0.135
>>> value("G29U A43G")
0.134
>>> value("C16A C18U")
0.98
>>> value("C12A C48G")
0.137

Now consider the entry below.
query: Please indicate self-cleavage recorded for A36G U67G
result: 0.19
